TARGET OR SYSTEM: Fyn (UniProt P06241)
Sequence (P06241 whole entry, looked up): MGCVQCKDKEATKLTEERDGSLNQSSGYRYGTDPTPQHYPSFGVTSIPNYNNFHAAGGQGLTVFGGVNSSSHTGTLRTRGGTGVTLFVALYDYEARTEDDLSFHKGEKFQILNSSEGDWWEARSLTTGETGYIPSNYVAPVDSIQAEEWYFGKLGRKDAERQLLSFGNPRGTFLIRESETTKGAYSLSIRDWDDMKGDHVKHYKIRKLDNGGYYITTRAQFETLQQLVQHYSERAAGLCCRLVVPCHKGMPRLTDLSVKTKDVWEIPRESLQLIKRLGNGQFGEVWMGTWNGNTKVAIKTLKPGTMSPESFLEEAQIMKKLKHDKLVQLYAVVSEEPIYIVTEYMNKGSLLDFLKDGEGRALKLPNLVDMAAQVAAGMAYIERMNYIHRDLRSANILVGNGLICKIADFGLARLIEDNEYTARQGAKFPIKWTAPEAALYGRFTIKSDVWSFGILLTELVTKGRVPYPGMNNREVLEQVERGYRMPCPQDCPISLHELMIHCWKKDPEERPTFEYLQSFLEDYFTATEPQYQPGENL
ASSAY INFO: phosphorylation enrichment, bacterial display (enrichment ratio); higher = better substrate or ligand; peptides without Tyr show the background;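 further: 11-residue human phosphosite peptides and single-mutation variants displayed on the E. coli surface, counted by deep sequencing, each peptide's frequency after selection divided by its frequency in the unselected input library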;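 further: frequency after pTyr selection over input frequency; kinase dosed for 20-30% of maximal phosphorylation in three min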
Could you label it met if measured phosphorylation enrichment is 0.6 or higher, and not met otherwise?

RESIDUE SEQUENCE	TARGET OR SYSTEM	CLASS NAME
REGAKYVSHSA [ASS1_Y113_G117S]	Fyn (UniProt P06241)	not met
MDDDQYALLTA [EFCAB6_Y675_T680A]	Fyn (UniProt P06241)	met
SGFESYGSSSF [RPA2_Y9_YF]	Fyn (UniProt P06241)	not met
RRKRAYVEIEY [MAK16_Y282_Q277R]	Fyn (UniProt P06241)	met
FSDPSYVKQME [CDC5L_Y464_YF]	Fyn (UniProt P06241)	not met
SFGMVYEGNAR [INSR_Y1038]	Fyn (UniProt P06241)	not met
VPVPGYTKVPE [SPRR3_Y146_L149V]	Fyn (UniProt P06241)	not met
TKFRNYLIPNG [CYP2C8_Y379_K383N]	Fyn (UniProt P06241)	not met
ERTIEYLEEVV [HADHA_Y239_A244V]	Fyn (UniProt P06241)	not met
FSGDCYRIQGR [DDR2_Y741_Y740C_YF]	Fyn (UniProt P06241)	not met
NFRTTCVNANE [KCNH2_Y475_Y475C]	Fyn (UniProt P06241)	not met
QRCFVYFFSFL [PTEN_Y176_R173C_YF]	Fyn (UniProt P06241)	met
ADFPDCKFRPR [SOX11_Y116_Y116C_YF]	Fyn (UniProt P06241)	not met
PVFQVYPLLNC [GATA1_Y78]	Fyn (UniProt P06241)	met
MENFIYESMQY [CYP19A1_Y361_R365Q]	Fyn (UniProt P06241)	met
RIAFQYGDTDL [MYBPC3_Y340_V342D]	Fyn (UniProt P06241)	met
RDGDRYFKGIV [DCX_Y64_N60D]	Fyn (UniProt P06241)	not met
ERNAHYRTPKI [PTK2B_Y699_R698H]	Fyn (UniProt P06241)	not met
RRNTPYSQTMK [TET2_Y819_S817T]	Fyn (UniProt P06241)	not met
KTVQDYLEKFY [MMP8_Y36]	Fyn (UniProt P06241)	met
LPKVSYVKAID [GLRA1_Y307]	Fyn (UniProt P06241)	not met
ASRKFYAMKIL [AKT3_Y174_G171R_YF]	Fyn (UniProt P06241)	not met
WQQQSYLDSVI [CTNNB1_Y30_G34V]	Fyn (UniProt P06241)	not met
RNAAEYPLSSG [ABL1_Y139_L140P]	Fyn (UniProt P06241)	not met
VQVAFYTMMMN [SPATA17_Y84_YF]	Fyn (UniProt P06241)	met
KRGIDYILRHM [FRMD1_Y225]	Fyn (UniProt P06241)	not met
QLLIKYPPEEV [ZZZ3_Y670]	Fyn (UniProt P06241)	met
TNLVPYPCIHF [TUBA1A_Y262_R264C]	Fyn (UniProt P06241)	not met

// data source = the supplement of paper PMC10065799
